The reported measurements were obtained from patent US7595401B2.

# Target Of Assay: purified human Hsp90
# Experiment Summary: Binding Assay: fluorescence polarization with BODIPY-labeled geldanamycin
# Study Conditions: BODIPY-GM 10 nM, Hsp90 30 nM

Compound: N#CC1CCN(CCn2c(Sc3cc4c(cc3Br)OCO4)nc3c(N)ncnc32)CC1
Target Of Assay: purified human Hsp90
Unit String: nM
Bound Sign: =
IC50: 800

Compound: COc1ccc(OC)c(Sc2nc3c(N)ncnc3n2CCN2C(=O)CCCC2=O)c1
Target Of Assay: purified human Hsp90
Unit String: nM
Bound Sign: =
IC50: 1000

Compound: Cc1ccccc1CCn1c(Sc2cc3c(cc2Br)OCO3)nc2c(N)ncnc21
Target Of Assay: purified human Hsp90
Unit String: nM
Bound Sign: =
IC50: 95

Compound: COc1ccc(OC)c(Sc2nc3c(N)ncnc3n2CCC2CCCN(C(=O)OC(C)(C)C)C2)c1 (centres unmarked)
Target Of Assay: purified human Hsp90
Unit String: nM
Bound Sign: =
IC50: 2500

Compound: CCOC(=O)N1CCCCC1CCn1c(Sc2cc3c(cc2Br)OCO3)nc2c(N)ncnc21 (centres unmarked)
Target Of Assay: purified human Hsp90
Unit String: nM
Bound Sign: =
IC50: 115

Compound: COc1ccc([N+](=O)[O-])cc1Sc1nc2c(N)ncnc2n1CCC1CCN(C=O)CC1
Target Of Assay: purified human Hsp90
Unit String: nM
Bound Sign: >
IC50: 5000

Compound: Nc1ncnc2c1nc(Sc1cc3c(cc1Br)OCO3)n2CCC1CCN(CC(F)(F)F)CC1
Target Of Assay: purified human Hsp90
Unit String: nM
Bound Sign: =
IC50: 600

Compound: Nc1ncnc2c1nc(Sc1cc3c(cc1Br)OCO3)n2CCC12CC3CC(CC(C3)C1)C2
Target Of Assay: purified human Hsp90
Unit String: nM
Bound Sign: >
IC50: 25000

Compound: COc1cc(Sc2nc3c(N)ncnc3n2CCc2c(Cl)cccc2Cl)c(OC)cc1Cl
Target Of Assay: purified human Hsp90
Unit String: nM
Bound Sign: =
IC50: 250

Compound: CC(C)(C)n1nnnc1N1CCC(CCn2c(Sc3cc4c(cc3Br)OCO4)nc3c(N)ncnc32)CC1
Target Of Assay: purified human Hsp90
Unit String: nM
Bound Sign: =
IC50: 1800

Compound: COc1cc(Sc2nc3c(N)ncnc3n2CCc2ccccc2Cl)c(OC)cc1Cl
Target Of Assay: purified human Hsp90
Unit String: nM
Bound Sign: =
IC50: 1500

Compound: CC(=O)Nc1ccc(Sc2nc3c(N)ncnc3n2CCC2CCN(C=O)CC2)c(Cl)c1
Target Of Assay: purified human Hsp90
Unit String: nM
Bound Sign: >
IC50: 5000

Compound: COc1ccc(OC)c(Sc2nc3c(N)ncnc3n2CCc2ccc(F)cc2)c1
Target Of Assay: purified human Hsp90
Unit String: nM
Bound Sign: =
IC50: 1000

Compound: CCCCNC(=O)Nc1ccc(CCn2c(Sc3cc(OC)ccc3OC)nc3c(N)ncnc32)cc1
Target Of Assay: purified human Hsp90
Unit String: nM
Bound Sign: >
IC50: 8000

Compound: COc1ccnc(Sc2nc3c(N)ncnc3n2CCC2CCN(C=O)CC2)c1
Target Of Assay: purified human Hsp90
Unit String: nM
Bound Sign: =
IC50: 1600

Compound: CCNC(=O)N1CCCC(CCn2c(Sc3cc4c(cc3Br)OCO4)nc3c(N)ncnc32)C1 (centres unmarked)
Target Of Assay: purified human Hsp90
Unit String: nM
Bound Sign: =
IC50: 195

Compound: CC(=O)N1CCC(CCn2c(Sc3nc4cccc(Cl)c4s3)nc3c(N)ncnc32)CC1
Target Of Assay: purified human Hsp90
Unit String: nM
Bound Sign: =
IC50: 190
